Where these numbers come from: the supplement of paper PMC9233669

Here the recorded self-aminoacylation is given for each entry.
- Tested on: biotinyl-Met-oxazolone
- PROTOCOL_SUMMARY: self-aminoacylation, catalytic enhancement (BMO) (fold over background); higher = more active; k-Seq, kA / k0A0; sequences stand for … in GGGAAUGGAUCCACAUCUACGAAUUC…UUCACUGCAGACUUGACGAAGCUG
Variants at the floor of the assay were thinned out.
// keep it numeric: no unit symbol after the value

Some entries whose results are on file:
MONOMER_SEQUENCE: AUUACCAUGGUCACCGAGUGA [Fam2.1 aminoacylation ribozyme variant]
ASSAY_SYSTEM: biotinyl-Met-oxazolone
EXPERIMENTAL_VALUE: 8.17

MONOMER_SEQUENCE: CCACACUUCAAGCUACCGGUC [Fam1B.1 aminoacylation ribozyme variant]
ASSAY_SYSTEM: biotinyl-Met-oxazolone
EXPERIMENTAL_VALUE: 0.931

MONOMER_SEQUENCE: AUUCACCAAGGUCAUCCGGUG [Fam2.2 aminoacylation ribozyme variant]
ASSAY_SYSTEM: biotinyl-Met-oxazolone
EXPERIMENTAL_VALUE: 7.8

MONOMER_SEQUENCE: CCCCUUCAAACAAUCGGUCUG [Fam1A.1 aminoacylation ribozyme variant]
ASSAY_SYSTEM: biotinyl-Met-oxazolone
EXPERIMENTAL_VALUE: 2.05

MONOMER_SEQUENCE: CCACACUUCUAGCAAUUGGUC [Fam1B.1 aminoacylation ribozyme variant]
ASSAY_SYSTEM: biotinyl-Met-oxazolone
EXPERIMENTAL_VALUE: 0.638

Lab book: self-aminoacylation of CCACACUUCAAGCAAUAGGCC [Fam1B.1 aminoacylation ribozyme variant] noted as 0.9

Lab book: self-aminoacylation of CUACAUCAAACACUCGGUCUG [Fam1A.1 aminoacylation ribozyme variant] noted as 1.03

Lab book: self-aminoacylation of AUUACCCUGGUCCUCAAGUGA [Fam2.1 aminoacylation ribozyme variant] noted as 2.16
